molecular target: full-length beta-Catenin (Uniprot ID P35222) (Homo sapiens (Human)) (UniProt P35222); assay: fluorescence polarization competition; full-length beta-catenin, competitor probe 5FAM-TCF4(10-53)
Sequence (P35222 whole entry): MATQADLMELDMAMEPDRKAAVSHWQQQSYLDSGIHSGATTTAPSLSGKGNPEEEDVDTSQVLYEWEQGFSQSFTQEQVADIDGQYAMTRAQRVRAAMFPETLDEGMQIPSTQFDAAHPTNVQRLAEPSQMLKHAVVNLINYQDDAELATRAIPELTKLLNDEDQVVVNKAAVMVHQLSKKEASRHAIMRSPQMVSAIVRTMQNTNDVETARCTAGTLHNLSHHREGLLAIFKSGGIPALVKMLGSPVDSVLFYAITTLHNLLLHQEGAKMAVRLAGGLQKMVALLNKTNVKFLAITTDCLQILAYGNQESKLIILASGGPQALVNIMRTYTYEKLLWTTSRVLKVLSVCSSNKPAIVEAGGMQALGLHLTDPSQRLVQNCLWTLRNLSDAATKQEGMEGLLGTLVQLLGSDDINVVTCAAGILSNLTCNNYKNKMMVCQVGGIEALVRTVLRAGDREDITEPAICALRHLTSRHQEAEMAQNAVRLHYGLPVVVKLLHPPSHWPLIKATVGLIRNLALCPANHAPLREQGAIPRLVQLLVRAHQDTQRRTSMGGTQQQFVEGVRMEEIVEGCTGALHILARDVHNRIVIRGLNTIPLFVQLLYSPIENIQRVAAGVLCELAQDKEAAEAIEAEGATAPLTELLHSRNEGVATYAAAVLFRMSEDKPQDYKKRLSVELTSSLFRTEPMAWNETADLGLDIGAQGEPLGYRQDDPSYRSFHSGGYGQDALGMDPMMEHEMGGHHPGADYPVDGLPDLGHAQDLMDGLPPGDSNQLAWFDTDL
pIC50: −log10 of the molar value. Starred links: 1 amine or outer side, 2 acyl side, 3 side chain; linkers in the order of their positions; H or OH if unused. Positions of bridges follow the written chain, without caps; N, C: chain ends. Non-standard residues stand in square brackets, D forms with d. Primed or numbered codes have the meaning given here. B5(32) = 2-amino-2-(pent-4-en-1-yl)hept-6-enoic acid (bis-4-pentenylglycine, two alkene side chains), C=CCCCC(CCCC=C)(N[*:1])C(=O)[*:2]; B5(4) = 2,2-bis(4-pentenyl)glycine = 2-amino-2-(pent-4-en-1-yl)hept-6-enoic acid (stitching residue), C=CCCCC(CCCC=C)(N[*:1])C(=O)[*:2]; PyrS2 = (S)-3-amino-1-((pent-4-en-1-yloxy)carbonyl)pyrrolidine-3-carboxylic acid, C=CCCCOC(=O)N1CC[C@@](N[*:1])(C(=O)[*:2])C1; 3Br4FF = (S)-2-amino-3-(3-bromo-4-fluorophenyl)propanoic acid, O=C([C@H](Cc1ccc(F)c(Br)c1)N[*:1])[*:2]; Phe(3-COOH) = N[C@@H](Cc1cccc(C(=O)O)c1)C(=O)O; Bta = N[C@@H](Cc1csc2ccccc12)C(=O)O; αAllylPro = C=CC[C@@]1(C(=O)O)CCCN1; tBuAla = CC(C)(C)C[C@H](N)C(=O)O; 3Thi = N[C@@H](Cc1ccsc1)C(=O)O
Metric: pIC50

A. Ac-[αAllylPro]D[tBuAla][B5(4)]D[Phe(3-COOH)]AAFL[PyrS2][3Thi][3Br4FF]Q-NH2 (staple 1-4, 4-11) [I-2287]
B. Ac-[αAllylPro]D[tBuAla][B5(32)]D[Phe(3-COOH)]AAFL[PyrS2][3Thi][Bta]NALL-NH2 (staple 1-4, 4-11; also: earlier eluting staple isomer) [I-2277]
Given the listed records, identify the one among A and B with higher pIC50. Identify your pick by its label.
A
(A: 8.15, B: 6.94)

The measurements presented in this section are drawn from patent US20240116985A1.
